Recorded measurements of % Inhibition, one per entry
System: P. falciparum stage V gametocytes
Set-up: BacTiter-Glo ATP luminescence viability of purified stage V gametocytes in 384-well plates, per cent inhibition versus DMSO
Settings: 48 h, 5 µM; inhibitor
The whole screen tested about 13,000 compounds, of which about 3,200 (25%) showed an effect of 50% or more. The list shows a part of the results.
Readout label: % Inhibition (%)

molecule="CC1CCN(c2nc(C(=O)Nc3cccc4c3CCCC4)c(C(C)C)s2)CC1 [TCMDC-134662]" result_units=% endpoint_result=11.59
molecule="COc1ccc(CNCc2ccc(-c3cccc(-c4nc5ccc(C(F)(F)F)cc5[nH]4)c3)cc2)cc1 [TCMDC-132731]" result_units=% endpoint_result=-22.42
molecule="O=C(NCCCCN1CCC(c2ccc([N+](=O)[O-])cc2)CC1)c1ccc(NC(=O)c2ccc(Cl)cc2)cc1 [TCMDC-138350]" result_units=% endpoint_result=25.02
molecule="Oc1cccc(CNCCCN(Cc2ccccc2)c2ccccc2)c1 [TCMDC-137875]" result_units=% endpoint_result=12.29
molecule="CNc1ccc(CNCc2cccc(-c3ccc(-c4nc5ccc(C(F)(F)F)cc5[nH]4)cc3)c2)cc1 [TCMDC-132982]" result_units=% endpoint_result=-73.95
molecule="CN(CCN)Cc1cccc(-c2cccc(-c3nc4ccc(F)cc4[nH]3)c2)c1 [TCMDC-132822]" result_units=% endpoint_result=48.31
molecule="Cc1cccc(CCCNC(=O)CN(c2cccc(C(F)(F)F)c2)S(=O)(=O)c2ccc(C(F)(F)F)cc2)c1 [TCMDC-136508]" result_units=% endpoint_result=-41.52
molecule="CCC[C@@H]1CCN[C@H]([C@H](O)c2ccnc3ccc(OC)cc23)C1 [TCMDC-138233]" result_units=% endpoint_result=-1.678
molecule="CNCCNCc1cccc(-c2cccc(-c3nc4ccc(C(F)(F)F)cc4[nH]3)c2)c1 [TCMDC-132827]" result_units=% endpoint_result=52.85
molecule="COc1ccc2nccc([C@@H](O)CN3CCC(NC(=O)c4ccc(-c5ccccc5)s4)CC3)c2c1 [TCMDC-141106]" result_units=% endpoint_result=10.46
molecule="NC1=NC2(CCCC2)N(c2ccc(Cl)cc2)C(N)=N1 [TCMDC-137719]" result_units=% endpoint_result=0.5076
molecule="Cc1cnc(C(=O)Nc2ccc3c(c2)CCCN(Cc2c[nH]c4cnccc24)C3)cn1 [TCMDC-134846]" result_units=% endpoint_result=9.147
molecule="CNCCNCc1ccc(-c2cccc(-c3nc4ccc(C(F)(F)F)cc4[nH]3)c2)cc1 [TCMDC-132826]" result_units=% endpoint_result=78.68
molecule="Cc1ccc(S(=O)(=O)N(CCCNCc2cccc(O)c2)c2ccccc2)cc1 [TCMDC-138022]" result_units=% endpoint_result=66.9
molecule="CC(C)NCc1cccc(-c2ccc(-c3nc4ccc(C(F)(F)F)cc4[nH]3)cc2)c1 [TCMDC-132742]" result_units=% endpoint_result=-56.16
molecule="CNCCNCc1ccc(-c2ccc(-c3nc4ccc(C(F)(F)F)cc4[nH]3)cc2)cc1 [TCMDC-132833]" result_units=% endpoint_result=32.25
